Every entry's value here was drawn from paper PMC8041433.

In this section we review reported pIC50 values for a set of compounds.
molecular target: AChE in SH-SY5Y spheroids (Homo sapiens); assay: cell-based; settings: potency (IC50), SH-SY5Y spheroids (24 h)
Where a name gives a salt, the structure may show the parent alone.
Kindly note that pIC50 refers to -log10 of the concentration in mol/L and answer with the value alone.

Below, 10 compounds whose answers are already recorded.
> print(dat)
                                    compound  reported.result
 1  CCN(CC)CCOc1ccc2c(c1)C(=O)c1cc(OCCN(CC)CC)ccc1-2 [Tilorone, reference compound]             5.87
 2           CCOP(=S)(OCC)SCn1nnc2ccccc2c1=O             4.60
 3  CCOC(=O)c1ccc(NC(=O)CN2CCCCC2)cc1 [Sulcaine, reference compound]             4.89
 4  CN1C(=O)COc2c(C(=O)NC3CN4CCC3CC4)cc(Cl)cc21 (stereo not drawn) [Azasetron hydrochloride, reference compound]             5.02
 5                  CCOP(=S)(OCC)SCSC(C)(C)C             5.66
 6  CCOP(=S)(OCC)OC(Cl)C(Cl)(Cl)Cl (stereo not drawn)             4.48
 7              CCOP(=S)(OCC)Oc1cnc2ccccc2n1             4.53
 8  O=C(Nc1cccc(C2=NCCN2)c1)Nc1cccc(C2=NCCN2)c1 [Imidocarb dipropionate, reference compound]             5.18
 9               CCOP(=S)(OCC)OP(=S)(OCC)OCC             4.82
10  CCOC(=O)CC(SP(=O)(OC)OC)C(=O)OCC (stereo not drawn)             5.39

Data request: Need pIC50, item CCN(C(=O)c1cc(C)cc(OC[C@H](C)Nc2ccncc2)c1)C(C)C.Cc1ccc(S(=O)(=O)O)cc1 [GW473178E methyl benzene sulfonic acid]
Data returned: 5.02

Data request: Need pIC50, item Cc1cc(OC(=O)N(C)C)nn1C(=O)N(C)C
Data returned: 4.80

* * *

In this section we review reported Efficacy values for a set of molecules.
molecular target: recombinant human AChE (Homo sapiens, UniProt P22303)
Counter-ions that a name gives are not always drawn.
Form rule: numeric answer, no unit written next to it.

Below, 6 molecules whose answers are already recorded.
> print(dat)
                                   molecule  reported.result
1  CCc1ccc(C(=O)C(C)CN2CCCCC2)cc1.Cl (centres unmarked) [Eperisone hydrochloride, reference compound]                0
2  CN1CCc2cc(Cl)c(O)cc2[C@H]2c3ccccc3CC[C@@H]21 [Ecopipam, reference compound]                0
3  O=C(O)/C=C/C(=O)O.O=C1c2ccccc2C(=O)N1CCc1noc(-c2ccc(CN3CCCCCC3)s2)n1          -51.694
4        COP(=O)(OC)SCn1c(=O)oc2cc(Cl)cnc21          -92.198
5  Cc1ccc2c(c1)OCC(=O)CO2 [7-Methyl-2H-1,5-benzodioxepin-3(4H)-one]                0
6  O=c1[nH]c2ccc([S+]([O-])CCN3CCC(Cc4ccc(F)cc4)CC3)cc2o1 (centres unmarked) [Besonprodil, reference compound]          -73.433

Data request: So what Efficacy did CCN(C(=O)c1cc(C)cc(OC[C@H](C)Nc2ccncc2)c1)C(C)C.Cc1ccc(S(=O)(=O)O)cc1 [GW473178E methyl benzene sulfonic acid] get with recombinant human AChE (Homo sapiens, UniProt P22303)?
Data returned: -52.62

Data request: So what Efficacy did CCN1CCCC1CNC(=O)c1cc(S(=O)(=O)CC)c(N)cc1OC (centres unmarked) [Amisulpride, reference compound] get with recombinant human AChE (Homo sapiens, UniProt P22303)?
Data returned: -30.734

Data request: So what Efficacy did CCOP(=S)(OCC)SCn1nnc2ccccc2c1=O get with recombinant human AChE (Homo sapiens, UniProt P22303)?
Data returned: -98.316

Data request: So what Efficacy did CNC(=O)O/N=C(\C)C(C)S(C)(=O)=O (centres unmarked) get with recombinant human AChE (Homo sapiens, UniProt P22303)?
Data returned: 0

Data request: So what Efficacy did CCCCOc1ccc(C(=O)CCN2CCCCC2)cc1 [Dyclonine hydrochloride] get with recombinant human AChE (Homo sapiens, UniProt P22303)?
Data returned: 0

* * *

target: AChE in neural stem cell spheroids (Homo sapiens, UniProt P22303); assay: cell-based; details: potency (IC50), Neural stem cell spheroid (48 h)
Sequence (P22303 32-614): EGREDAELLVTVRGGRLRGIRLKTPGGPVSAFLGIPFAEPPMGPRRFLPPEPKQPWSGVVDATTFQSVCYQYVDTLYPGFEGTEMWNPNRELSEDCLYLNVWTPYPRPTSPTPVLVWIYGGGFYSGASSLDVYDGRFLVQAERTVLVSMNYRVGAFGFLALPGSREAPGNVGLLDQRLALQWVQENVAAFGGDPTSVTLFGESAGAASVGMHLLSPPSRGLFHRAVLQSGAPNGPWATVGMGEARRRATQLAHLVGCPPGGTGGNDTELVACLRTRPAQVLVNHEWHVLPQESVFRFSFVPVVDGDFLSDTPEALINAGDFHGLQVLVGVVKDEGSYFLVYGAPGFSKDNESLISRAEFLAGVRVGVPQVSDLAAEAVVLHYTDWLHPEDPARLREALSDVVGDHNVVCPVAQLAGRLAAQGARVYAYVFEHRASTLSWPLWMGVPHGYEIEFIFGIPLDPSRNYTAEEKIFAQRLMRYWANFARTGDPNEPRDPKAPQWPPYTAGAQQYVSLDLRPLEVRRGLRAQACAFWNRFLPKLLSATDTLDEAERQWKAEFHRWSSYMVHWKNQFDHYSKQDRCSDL
Where a name gives a salt, the structure may show the parent alone.
parameter_measured: IC50 (µM)
State the answer as a number, implicitly in µM.

Data request: Need IC50, item CCOP(=S)(OCC)SCn1c(=O)oc2cc(Cl)ccc21
Data returned: 10.5

Data request: Need IC50, item CCN1CCCC1CNC(=O)c1cc(S(=O)(=O)CC)c(N)cc1OC (centres unmarked) [Amisulpride, reference compound]
Data returned: 12.1

Data request: Need IC50, item O=C(c1ccc(OCCN2CCCCC2)cc1)c1c(-c2ccc(O)cc2)sc2cc(O)ccc12 [Raloxifene hydrochloride, reference compound]
Data returned: 9.85

Data request: Need IC50, item Cc1nc(N(C)C)nc(OC(=O)N(C)C)c1C
Data returned: 2.47

Data request: Need IC50, item CC(=O)Oc1cc(C(C)C)c(OCCN(C)C)cc1C [Moxisylyte hydrochloride, reference compound]
Data returned: 24.3

Data request: Need IC50, item CN1CCc2cc(Cl)c(O)cc2[C@H]2c3ccccc3CC[C@@H]21 [Ecopipam, reference compound]
Data returned: 3.16

Data request: Need IC50, item CNC(=O)Oc1ccccc1OC(C)C
Data returned: 35.8

Data request: Need IC50, item CNC(=O)Oc1ccc(N(C)C)c(C)c1
Data returned: 29.1

Data request: Need IC50, item CCOP(=S)(OCC)Oc1nc(Cl)c(Cl)cc1Cl [Chlorpyrifos, reference compound]
Data returned: 2.58

Data request: Need IC50, item CNC(=O)Oc1cc(C)cc(C(C)C)c1
Data returned: 0.66

Data request: Need IC50, item CN1C[C@H](CNC(=O)OCc2ccccc2)C[C@@H]2c3cccc4c3c(cn4C)C[C@H]21 [Metergoline, reference compound]
Data returned: 5.8

* * *

recombinant human AChE (Homo sapiens, UniProt P22303) Efficacy data
Where a name gives a salt, the structure may show the parent alone.

Below, 5 molecules whose answers are already recorded.
> print(dat)
                                   molecule  parameter.measured  reported.result
1  CCN=C1C=CC(=C(c2ccc(N(CC)CC)cc2)c2ccc(N(CC)CC)cc2)c2ccccc21.Cl [Basic Blue 7]            Efficacy                0
2  CCCCC(CC)CNC(=N)NC(=N)NCCCCCCNC(=N)NC(=N)NCC(CC)CCCC (stereo not shown) [Alexidine dihydrochloride]            Efficacy           11.253
3  O=C(CCC1CCN(Cc2ccccc2)CC1)c1ccc2c(c1)NCCCC2.O=C(O)/C=C/C(=O)O [Zanapezil fumerate, reference compound]            Efficacy          -97.158
4        NC(=O)N=NC(N)=O [Azodicarbonamide]            Efficacy                0
5  COCCCN1CCC(NC(=O)c2cc(Cl)c(N)c3c2OCC3)CC1 [Prucalopride]            Efficacy                0

Data request: Need Efficacy, item Nc1c2c(nc3ccccc13)CCCC2O.O=C(O)/C=C\C(=O)O (stereo not shown) [Hydroxytacrine maleate, reference compound]
Data returned: -93.06

Data request: Need Efficacy, item CCOC(=O)c1cn2nc(OP(=S)(OCC)OCC)cc2nc1C [Pyrazophos]
Data returned: -98.116

Data request: Need Efficacy, item CN(CCOc1ccc(NS(C)(=O)=O)cc1)CCc1ccc(NS(C)(=O)=O)cc1 [Dofetilide]
Data returned: 0

Data request: Need Efficacy, item Cc1ccc2c(n1)Oc1ccc(C(C)C(=O)OCC(=O)N(C)C)cc1C2 (stereo not shown) [Mepranoprofen arbamel, reference compound]
Data returned: 0

Data request: Need Efficacy, item CCCCCCCCCC[N+](C)(CCCCCCCCCC)CCC[Si](OC)(OC)OC.[Cl-] [Disiquonium chloride]
Data returned: 0

Data request: Need Efficacy, item O=C1c2c(O)ccc(Nc3ccc(CCO)cc3)c2C(=O)c2c([N+](=O)[O-])ccc(O)c21 [C.I. Disperse Blue 27]
Data returned: 0

Data request: Need Efficacy, item CNC(=O)ON=C(C)SC [Methomyl]
Data returned: -96.277

Data request: Need Efficacy, item COCCCOc1ccnc(C[S+]([O-])c2nc3ccccc3[nH]2)c1C (stereo not shown) [Rabeprazole sodium]
Data returned: 92.667
